assayedTarget: Beta-lactamase (Enterobacter cloacae)
Sequence (P05364 whole entry): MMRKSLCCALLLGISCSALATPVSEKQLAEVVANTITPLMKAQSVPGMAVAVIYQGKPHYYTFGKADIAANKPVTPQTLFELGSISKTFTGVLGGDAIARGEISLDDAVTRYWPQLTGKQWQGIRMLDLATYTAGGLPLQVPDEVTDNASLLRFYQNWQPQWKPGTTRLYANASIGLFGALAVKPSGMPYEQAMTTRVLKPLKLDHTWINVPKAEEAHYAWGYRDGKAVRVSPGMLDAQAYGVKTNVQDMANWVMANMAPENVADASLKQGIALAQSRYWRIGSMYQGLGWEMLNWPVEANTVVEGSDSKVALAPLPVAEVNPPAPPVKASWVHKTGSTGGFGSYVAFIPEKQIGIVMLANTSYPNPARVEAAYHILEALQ
protocol: The concentration of compound to inhibit beta-lactamase was measured on Enterobacter cloacae P99
Assay type: functional
pIC50: −log10 of the molar value.
Recorded pIC50 for the following compounds

chemsmiles=CC(=O)OCC1=C(C(=O)O)N2C(=O)C(=C(Cl)Cl)[C@H]2S(=O)(=O)C1 recordedendpoint=pIC50 endpointvalue="< 4.70"
chemsmiles=CC(=O)OCC1=C(C(=O)O)N2C(=O)/C(=C/CO)[C@H]2S(=O)(=O)C1 recordedendpoint=pIC50 endpointvalue="< 4.70"

Sure, the documented pIC50 for CC(=O)OCC1=C(C(=O)O)N2C(=O)/C(=C/C(C)(C)C)[C@H]2SC1 is < 4.70

Sure, the documented pIC50 for CC(=O)OCC1=C(C(=O)O)N2C(=O)/C(=C/C(C)(C)C)[C@H]2S(=O)(=O)C1 is < 4.70

Sure, the documented pIC50 for CC(=O)OCC1=C(C(=O)O)N2C(=O)/C(=C/C(=O)OC(C)(C)C)[C@H]2S(=O)(=O)C1 is 5.11

Sure, the documented pIC50 for CC(=O)OCC1=C(C(=O)O)N2C(=O)/C(=C\c3ccccc3)[C@H]2S(=O)(=O)C1 is < 4.70

Sure, the documented pIC50 for CON(C)C(=O)/C=C1/C(=O)N2C(C(=O)O)=C(COC(C)=O)CS[C@H]12 is < 4.70

Sure, the documented pIC50 for CC(=O)OCC1=C(C(=O)O)N2C(=O)/C(=C/c3ccccc3)[C@H]2S(=O)(=O)C1 is 5.20

Sure, the documented pIC50 for CC(=O)OCC1=C(C(=O)[O-])N2C(=O)/C(=C/c3ccccn3)[C@H]2S(=O)(=O)C1.[Na+] is 7.60

Sure, the documented pIC50 for CC(=O)OCC1=C(C(=O)O)N2C(=O)/C(=C\Br)[C@H]2S(=O)(=O)C1 is < 4.70

Sure, the documented pIC50 for CC(=O)OCC1=C(C(=O)O)N2C(=O)C(=C(Br)Br)[C@H]2S(=O)(=O)C1 is < 4.70
